system: Haemophilus influenzae RD; assay: broth micro-dilution MIC; assay type: cell-based; conditions: Haemophilus influenzae RD
Assignment: determine reported MIC for the given molecules.

Requested read-out MIC, target or system Haemophilus influenzae RD, entry CNC(CC(C)C)C(=O)NC1C(=O)NC(CC(N)=O)C(=O)NC2C(=O)NC3C(=O)NC(C(=O)NC(C(=O)O)c4cc(O)cc(O)c4-c4cc3ccc4O)C(OC3CC(C)(N)C(O)C(C)O3)c3ccc(c(Cl)c3)Oc3cc2cc(c3OC2OC(CO)C(O)C(O)C2OC2CC(C)(NCc3ccc(-c4ccc(C)cc4)cc3C)C(O)C(C)O2)Oc2ccc(cc2Cl)C1O (centres unmarked) [Compound 222]
32 µg/mL

Same for CNC(CC(C)C)C(=O)NC1C(=O)NC(CC(N)=O)C(=O)NC2C(=O)NC3C(=O)NC(C(=O)NC(C(=O)O)c4cc(O)cc(O)c4-c4cc3ccc4O)C(OC3CC(C)(N)C(O)C(C)O3)c3ccc(c(Cl)c3)Oc3cc2cc(c3OC2OC(CO)C(O)C(O)C2OC2CC(C)(NCCCc3ccc(OC)cc3)C(O)C(C)O2)Oc2ccc(cc2Cl)C1O (centres unmarked) [Compound 175]
16 µg/mL

Same for CNC(CC(C)C)C(=O)NC1C(=O)NC(CC(N)=O)C(=O)NC2C(=O)NC3C(=O)NC(C(=O)NC(C(=O)O)c4cc(O)cc(O)c4-c4cc3ccc4O)C(OC3CC(C)(N)C(O)C(C)O3)c3ccc(c(Cl)c3)Oc3cc2cc(c3OC2OC(CO)C(O)C(O)C2OC2CC(C)(NCCCCCCCCOc3ccc(-c4ccccc4)cc3)C(O)C(C)O2)Oc2ccc(cc2Cl)C1O (centres unmarked) [Compound 201]
32 µg/mL

Same for CC(C)CC(C(=O)NC1C(=O)NC(CC(N)=O)C(=O)NC2C(=O)NC3C(=O)NC(C(=O)NC(C(=O)O)c4cc(O)cc(O)c4-c4cc3ccc4O)C(OC3CC(C)(N)C(O)C(C)O3)c3ccc(c(Cl)c3)Oc3cc2cc(c3OC2OC(CO)C(O)C(O)C2OC2CC(C)(NCc3c4ccccc4cc4ccccc34)C(O)C(C)O2)Oc2ccc(cc2Cl)C1O)N(C)Cc1c2ccccc2cc2ccccc12 (centres unmarked) [Compound 284]
> 64 µg/mL

Same for CC(C)CC(C(=O)NC1C(=O)NC(CC(N)=O)C(=O)NC2C(=O)NC3C(=O)NC(C(=O)NC(C(=O)O)c4cc(O)cc(O)c4-c4cc3ccc4O)C(OC3CC(C)(N)C(O)C(C)O3)c3ccc(c(Cl)c3)Oc3cc2cc(c3OC2OC(CO)C(O)C(O)C2OC2CC(C)(NCc3ccc(Oc4ccc([N+](=O)[O-])cc4)cc3)C(O)C(C)O2)Oc2ccc(cc2Cl)C1O)N(C)Cc1ccc(Oc2ccc([N+](=O)[O-])cc2)cc1 (centres unmarked) [Compound 267]
> 64 µg/mL

Same for CC(C)CC(C(=O)NC1C(=O)NC(CC(N)=O)C(=O)NC2C(=O)NC3C(=O)NC(C(=O)NC(C(=O)O)c4cc(O)cc(O)c4-c4cc3ccc4O)C(OC3CC(C)(NCc4cccc5c([N+](=O)[O-])cccc45)C(O)C(C)O3)c3ccc(c(Cl)c3)Oc3cc2cc(c3OC2OC(CO)C(O)C(O)C2OC2CC(C)(N)C(O)C(C)O2)Oc2ccc(cc2Cl)C1O)N(C)Cc1cccc2c([N+](=O)[O-])cccc12 (centres unmarked) [Compound 286]
> 64 µg/mL

Same for CNC(CC(C)C)C(=O)NC1C(=O)NC(CC(N)=O)C(=O)NC2C(=O)NC3C(=O)NC(C(=O)NC(C(=O)O)c4cc(O)cc(O)c4-c4cc3ccc4O)C(OC3CC(C)(NCc4ccc(-c5ccc([N+](=O)[O-])cc5)cc4)C(O)C(C)O3)c3ccc(c(Cl)c3)Oc3cc2cc(c3OC2OC(CO)C(O)C(O)C2OC2CC(C)(NCc3ccc(-c4ccc([N+](=O)[O-])cc4)cc3)C(O)C(C)O2)Oc2ccc(cc2Cl)C1O (centres unmarked) [Compound 263]
> 64 µg/mL

Same for CNC(CC(C)C)C(=O)NC1C(=O)NC(CC(N)=O)C(=O)NC2C(=O)NC3C(=O)NC(C(=O)NC(C(=O)O)c4cc(O)cc(O)c4-c4cc3ccc4O)C(OC3CC(C)(N)C(O)C(C)O3)c3ccc(c(Cl)c3)Oc3cc2cc(c3OC2OC(CO)C(O)C(O)C2OC2CC(C)(NCc3ccc(-c4cccc(C)c4)cc3)C(O)C(C)O2)Oc2ccc(cc2Cl)C1O (centres unmarked) [Compound 224]
32 µg/mL

Same for CNC(CC(C)C)C(=O)NC1C(=O)NC(CC(N)=O)C(=O)NC2C(=O)NC3C(=O)NC(C(=O)NC(C(=O)O)c4cc(O)cc(O)c4-c4cc3ccc4O)C(OC3CC(C)(N)C(O)C(C)O3)c3ccc(c(Cl)c3)Oc3cc2cc(c3OC2OC(CO)C(O)C(O)C2OC2CC(C)(NCc3ccc4ccccc4n3)C(O)C(C)O2)Oc2ccc(cc2Cl)C1O (centres unmarked) [Compound 30]
> 64 µg/mL

Same for COc1ccc2nc(-c3ccccc3)cc(CNC3(C)CC(OC4C(Oc5c6cc7cc5Oc5ccc(cc5Cl)C(OC5CC(C)(N)C(O)C(C)O5)C5NC(=O)C(NC(=O)C7NC(=O)C(CC(N)=O)NC(=O)C(NC(=O)C(CC(C)C)N(C)Cc7cc(-c8ccccc8)nc8ccc(OC)cc78)C(O)c7ccc(c(Cl)c7)O6)c6ccc(O)c(c6)-c6c(O)cc(O)cc6C(C(=O)O)NC5=O)OC(CO)C(O)C4O)OC(C)C3O)c2c1 (centres unmarked) [Compound 277]
> 64 µg/mL

Same for CNC(CC(C)C)C(=O)NC1C(=O)NC(CC(N)=O)C(=O)NC2C(=O)NC3C(=O)NC(C(=O)NC(C(=O)O)c4cc(O)cc(O)c4-c4cc3ccc4O)C(OC3CC(C)(NCc4ccc(OCCOC(C)(C)C)cc4)C(O)C(C)O3)c3ccc(c(Cl)c3)Oc3cc2cc(c3OC2OC(CO)C(O)C(O)C2OC2CC(C)(NCc3ccc(OCCOC(C)(C)C)cc3)C(O)C(C)O2)Oc2ccc(cc2Cl)C1O (centres unmarked) [Compound 288]
> 64 µg/mL
